System: NCI-H23 lung
experiment description: NCI tumour cell line growth inhibition, 48 h
// reported TGI per item
Kindly provide the numeric value in µM only, without the unit symbol.

>  <molecule>
Clc1ccc(C2SCc3nc4ccccc4n32)cc1 (centres undefined)

>  <endpoint result>
48.3

$$$$
>  <molecule>
NC1(c2cc3ccccc3s2)CCCCCC1

>  <endpoint result>
34

$$$$
>  <molecule>
N=C1C=CC(=C(c2ccc(N)cc2)c2ccc(N)cc2)C=C1

>  <endpoint result>
16.3

$$$$
>  <molecule>
Cc1cc(N(CCC#N)S(=O)(=O)c2ccccc2)ccc1C=Nc1ccc(C(=O)O)cc1

>  <endpoint result>
33.9

$$$$
>  <molecule>
Clc1nc2nc(N3CCNCC3)nc(N3CCCC3)c2[nH]1

>  <endpoint result>
32

$$$$
>  <molecule>
COc1ccc2c3ccnc(C(F)(F)F)c3n(CCCCN)c2c1

>  <endpoint result>
22.2

$$$$
>  <molecule>
CC1(C)C2CC3C(C)(C2)C31c1cc(Cl)ccc1N (centres undefined)

>  <endpoint result>
26

$$$$
>  <molecule>
C[C@@H]1CC[C@@H]2[C@@H]1[C@H](OC(=O)/C=C/C1CCCCC1)[C@]1(C3CCCCC3)C[C@@H](OC(=O)CO)[C@@]2(C)O1

>  <endpoint result>
31.7

$$$$
>  <molecule>
N#C/C(=C\c1ccc[nH]1)c1cc(-c2ccc(Cl)cc2)nn1-c1ccccc1

>  <endpoint result>
22.1

$$$$
>  <molecule>
CCOC(=O)c1sc2nc(SC)nc3c2c1NCN3C

>  <endpoint result>
59.1

$$$$

*Q* Reported TGI for `C=CCc1c(O)c(C(=O)/C=C/c2ccc(Cl)cc2)c(OC)c2ccoc12` : what is it?
*A* 11.6

*Q* How about CC1=CC2(C)/C=C(C)/C=C\CC(O)/C=C3/C=CC(=C4C(=O)OC2(CC1C)C4=O)OC3 (centres undefined) ?
*A* 7.82

*Q* How about `Nc1ccc(C#Cc2ccccc2C#CCCCCO)cc1` ?
*A* 35.1

*Q* How about OC(CCN1CCN(CCOC(c2ccccc2)c2ccccc2)CC1)c1ccccc1 (centres undefined) ?
*A* 63.1

*Q* How about `C=C1C(=O)O[C@@H]2/C=C(/C)[C@@H](OC(C)=O)C[C@@H](O)/C(C)=C\[C@@H](OC(=O)[C@]3(C)O[C@@H]3C)[C@@H]12` ?
*A* 35.6

*Q* How about CC1=C(CCC(C)CO)O[C@H]2C[C@H]3[C@@H]4CC[C@H]5C[C@@H](O)CC[C@]5(C)[C@H]4CC(=O)[C@]3(C)[C@@H]12 (some centres undefined) ?
*A* 36.6

###

// reported TGI per item
System: CAKI-1 renal
experiment description: NCI tumour cell line growth inhibition, 48 h

>  <compound>
CC12CCC(C1)C(C)(C)C2OC(=O)c1ccccc1N (stereo unspecified)

>  <target desc>
CAKI-1 renal

>  <endpoint result>
29.9 µM

$$$$
>  <compound>
CCCN=C1NC(C)=CSC(Nc2ccccc2)=C1C#N

>  <target desc>
CAKI-1 renal

>  <endpoint result>
> 100 µM

$$$$

*Q* Reported TGI for COc1cc2[nH]c3c(c2cc1OC)CCN[C@@]31CC[C@@]2(CC3c4c(cc(OC)c(O)c42)CCN3C)C[C@@H]1OC (stereo partly specified) : what is it?
*A* > 79.5 µM

*Q* How about `COc1cc2ncnc(Oc3ccc(NC(=O)Nc4ccc(CN5CCOCC5)c(C(F)(F)F)c4)c4ccccc34)c2cc1OC` ?
*A* 3.16 µM

Each recorded value in this set is attributed to PubChem BioAssay (NCI).
